Measured values drawn from patent US20260242419A1 for this set.

# Target: Recombinant human IL-1β (BioLegend 579404) (human, UniProt P01584 117-269)
# Assay overview: cell-based or functional assay
Starred links: 1 amine or outer side, 2 acyl side, 3 side chain; linkers in the order of their positions; H or OH if unused. Non-standard residues stand in square brackets, D forms with d. Bip4CONMe2 = (2S)-2-amino-3-[4-[4-(dimethylcarbamoyl)phenyl]phenyl]propanoic acid, CN(C)C(=O)c1ccc(-c2ccc(C[C@H](N[*:1])C(=O)[*:2])cc2)cc1; dProc4Bn4Cl = (2R,4R)-4-[(4-chlorophenyl)methyl]pyrrolidine-2-carboxylic acid, O=C([C@H]1C[C@@H](Cc2ccc(Cl)cc2)CN1[*:1])[*:2]; Phe(4-(4-Ac-piperazinyl)) = CC(=O)N1CCN(c2ccc(C[C@H](N)C(=O)O)cc2)CC1; dPro(4R-(4-pyridylmethyl)) = O=C(O)[C@H]1C[C@@H](Cc2ccncc2)CN1; Trp(βS-Me,4-F) = C[C@@H](c1c[nH]c2cccc(F)c12)[C@H](N)C(=O)O; Bip(4'-COOH) = N[C@@H](Cc1ccc(-c2ccc(C(=O)O)cc2)cc1)C(=O)O; Ala(1-bicyclo(1.1.1)pentyl) = N[C@@H](CC12CC(C1)C2)C(=O)O; dPro(3S-(4-F-Bn)) = O=C(O)[C@@H]1NCC[C@@H]1Cc1ccc(F)cc1; Ala(morpholin-4-yl) = N[C@@H](CN1CCOCC1)C(=O)O; Ala(pyrimidin-5-yl) = N[C@@H](Cc1cncnc1)C(=O)O; Phe(4-COOH) = N[C@@H](Cc1ccc(C(=O)O)cc1)C(=O)O; Phe(4-Br) = N[C@@H](Cc1ccc(Br)cc1)C(=O)O; Pro(cis-4-F) = O=C(O)[C@@H]1C[C@H](F)CN1; Met(O2) = CS(=O)(=O)CC[C@H](N)C(=O)O; d(αMeD) = C[C@@](N)(CC(=O)O)C(=O)O; 4Pal = N[C@@H](Cc1ccncc1)C(=O)O; d(αMeS) = C[C@@](N)(CO)C(=O)O; Cba = N[C@@H](CC1CCC1)C(=O)O; Dab = NCC[C@H](N)C(=O)O; Aib = CC(C)(N)C(=O)O
Recorded MRC5 IC50 by entry
Report only the number, with the unit pM understood.

Worked set:
- Binder: "cyclo([Bip(4'-COOH)][4Pal][Phe(4-COOH)]G[Pro(cis-4-F)][Trp(βS-Me,4-F)][Aib]SW[d(αMeD)][Ala(pyrimidin-5-yl)]Q[Dab]G[dProc4Bn4Cl]) (ring closure inferred) [SEQ ID NO 329]"
  Property measured: "MRC5 IC50"
  Reading: 9
- Binder: "cyclo([Phe(4-(4-Ac-piperazinyl))][4Pal][Phe(4-COOH)]G[Pro(cis-4-F)][Trp(βS-Me,4-F)][Aib]SW[d(αMeS)][Ala(pyrimidin-5-yl)]Q[Dab]G[dPro(4R-(4-pyridylmethyl))]) (ring closure inferred) [SEQ ID NO 350]"
  Property measured: "MRC5 IC50"
  Reading: 20

Problem: Report MRC5 IC50 for cyclo([Bip4CONMe2][4Pal][Phe(4-COOH)]G[Pro(cis-4-F)][Trp(βS-Me,4-F)][Aib]SW[d(αMeS)][Ala(pyrimidin-5-yl)]Q[Dab]G[dPro(4R-(4-pyridylmethyl))]) (ring closure inferred) [SEQ ID NO 338] please.
Solution: 18

Problem: Report MRC5 IC50 for cyclo([Phe(4-Br)][4Pal][Phe(4-COOH)]G[Pro(cis-4-F)][Trp(βS-Me,4-F)][Aib]SW[d(αMeD)][Ala(pyrimidin-5-yl)]Q[Dab]G[dPro(3S-(4-F-Bn))]) (ring closure inferred; not fully specified (N-terminus); printed as cyclic, Phe4Br-4Pal-Phe4COOH-G-Proc4F-SbMeW4F-Aib-S-W-daMeD-PyrimAla-Q-Dab-G-dProc3Bn4F) [SEQ ID NO 299] please.
Solution: 12

Problem: Report MRC5 IC50 for cyclo([Bip(4'-COOH)][Ala(1-bicyclo(1.1.1)pentyl)][Phe(4-COOH)]G[Pro(cis-4-F)][Trp(βS-Me,4-F)][Aib]SW[d(αMeD)][Cba]Q[Dab]G[dPro(4R-(4-pyridylmethyl))]) (ring closure inferred) [SEQ ID NO 348] please.
Solution: 18

Problem: Report MRC5 IC50 for cyclo([Bip(4'-COOH)][4Pal][Phe(4-COOH)]G[Pro(cis-4-F)][Trp(βS-Me,4-F)][Aib]SW[Aib][Met(O2)]Q[Dab]G[dPro(4R-(4-pyridylmethyl))]) (ring closure inferred) [SEQ ID NO 266] please.
Solution: 19

Problem: Report MRC5 IC50 for cyclo([Bip(4'-COOH)][4Pal][Phe(4-COOH)]G[Pro(cis-4-F)][Trp(βS-Me,4-F)][Aib]SW[d(αMeD)][Ala(morpholin-4-yl)]Q[Dab]G[dPro(3S-(4-F-Bn))]) (ring closure inferred) [SEQ ID NO 286] please.
Solution: 10
